# Tested on: Caco-2
# Assay Info: cell viability relative to DMSO; higher = less toxic
# Measurement Context: 72 h; 10000 nM

# Compound, cell viability (%)
measured = [
    ("COC(=O)N[C@H](C(=O)N1CC2(CC2)C[C@H]1c1nc(-c2ccc3c(c2)C(F)(F)c2cc(-c4ccc5[nH]c([C@@H]6[C@H]7CC[C@H](C7)N6C(=O)[C@@H](NC(=O)OC)C(C)C)nc5c4)ccc2-3)c[nH]1)C(C)C", 87.5),
    ("COc1cc2c(cc1O)CC[C@@H]1[C@@H]2CC[C@]2(C)[C@@H](O)CC[C@@H]12", 58.1),
    ("CCO[C@@H](Cc1ccc(OCCn2c(C)ccc2-c2ccc(SC)cc2)cc1)C(=O)O", 100),
    ("O=C1c2c(O)cc(O)cc2O[C@H](c2cc(O)c(O)c(O)c2)[C@H]1O [dihydromyricetin]", 97.4),
    ("COc1cn(-c2ccc(-n3cccn3)cc2F)nc(-c2ccnn2-c2ccccc2)c1=O", 105),
    ("O=C(O)CNC(=O)c1c(O)c2ccccc2n(Cc2ccccc2)c1=O", 93.2),
]

* * *

# Test system: Caco-2
# Assay Info: cell viability relative to DMSO; higher = less toxic
# Measurement Context: 72 h; 1 nM
cell viability values for the compounds below.

# Compound, cell viability, %
data = [
    ("CC[C@]12CCCN3CCc4c(n(c5ccccc45)[C@@](O)(C(=O)OC)C1)[C@@H]32", 101),
    ("Cc1nn(-c2ccccc2)c(C)c1/C=N/N1CCN(Cc2ccccc2)CC1", 105),
    ("CNC(C)(C)Cc1ccccc1", 97.1),
    ("CNCCC=C1c2ccccc2C=Cc2ccccc21", 94.2),
    ("CC12CCC(CC1=O)C2(C)C (stereo not drawn) [camphor-(+)]", 95.2),
    ("Cn1ncc(Cl)c1-c1cc(C(=O)N[C@H](CN)Cc2cccc(F)c2)sc1Cl", 83.6),
]

* * *

# Test system: HepG2
# Assay Info: cell viability relative to DMSO; higher = less toxic
# Measurement Context: 72 h; 10 nM

# Compound, Readout Units, cell viability
records = [
    ("COc1ccc(S(=O)(=O)Nc2cccnc2Nc2ccc(O)cc2)cc1", "%", 108),
    ("Oc1c(I)cc(I)c(O)c1I", "%", 91.1),
    ("Nc1nc(O)c2ncn(CCC(CO)CO)c2n1", "%", 94.3),
    ("CS(=O)(=O)c1ccc(Cn2c3c(c4cc(F)cc(F)c42)CCCC3CC(=O)O)cc1 (stereo not drawn)", "%", 91),
    ("NC/C(=C/F)CCc1ccc(F)cc1", "%", 91.5),
    ("CCc1cc2c(cc1CC)CC(NC[C@H](O)c1ccc(O)c3[nH]c(=O)ccc13)C2", "%", 115),
    ("COc1cc(SC)ccc1C(=O)N1CCC(Cc2ccccc2)CC1", "%", 110),
    ("COc1cc(O)c(C(=O)c2ccccc2)cc1S(=O)(=O)O", "%", 101),
]

* * *

Catalogue of molecules with associated cell viability
# Test system: Caco-2
# Assay Info: cell viability relative to DMSO; higher = less toxic
# Measurement Context: 72 h; 1 nM

# Molecule, Readout Units, cell viability
rows = [
    ("CCn1nc(C2CCN(C(=O)CCO)CC2)nc1-c1cnc(N)c(-c2nnc(C(C)(C)C)o2)n1", "%", 94.1),
    ("O=C(NOCC(O)CO)c1cc(Br)c(F)c(F)c1Nc1ccc(I)cc1F (centres undefined)", "%", 102),
    ("C[C@H]1C[C@H]2[C@@H]3CCC4=CC(=O)C=C[C@]4(C)[C@@]3(F)[C@@H](O)C[C@]2(C)[C@@]1(O)C(=O)CO", "%", 101),
    ("CCN1CCCC1=O", "%", 93.6),
]

* * *

This section presents compounds with their documented cell viability values.
# Test system: Vero E6
# Assay Info: cell viability relative to DMSO; higher = less toxic
# Measurement Context: 72 h; 10000 nM

# Compound, Measured Target, Readout Units, cell viability
data = [
    ("O=C(O)c1cc(O)c2ccc(Cl)cc2n1", "Vero E6", "%", 108),
    ("C/C(=N\\NC(=N)N)c1cc(NC(=O)CCCCCCCCC(=O)Nc2cc(/C(C)=N/NC(=N)N)cc(/C(C)=N/NC(=N)N)c2)cc(/C(C)=N/NC(=N)N)c1", "Vero E6", "%", 75.9),
    ("COC(=O)c1ccccc1NC(=O)c1ccc(F)cc1 [EXO-1]", "Vero E6", "%", 99.5),
    ("Cc1cc(O)c2c(=O)c3c(O)cc(O)c4c5c(O)cc(O)c6c(=O)c7c(O)cc(C)c8c1c2c(c34)c(c78)c65", "Vero E6", "%", 95.7),
    ("COC(=O)N[C@H](C(=O)N1CCC[C@H]1c1nc(-c2ccc3c(c2)O[C@@H](c2ccccc2)n2c-3cc3cc(-c4c[nH]c([C@@H]5CCCN5C(=O)[C@@H](NC(=O)OC)C(C)C)n4)ccc32)c[nH]1)C(C)C", "Vero E6", "%", 107),
    ("C[C@H](/C=C/[C@H](C)C(C)(C)O)[C@H]1CC[C@H]2/C(=C/C=C3C[C@@H](O)C[C@H](O)C3)CCC[C@]12C", "Vero E6", "%", 101),
]

* * *

# Tested on: Vero E6
# Assay Info: relative viability EC50 (midpoint between 100% and the lowest measured viability); higher = less toxic
# Measurement Context: 72 h
In this section we review reported relative viability EC50 values for a set of compounds.

# Compound, relative viability EC50
rows = [
    ("CN(C/C=C/C#CC(C)(C)C)Cc1cccc2ccccc12", "> 10 µM"),
    ("O=c1[nH]c(=O)n([C@H]2C[C@H](O)[C@@H](CO)O2)cc1I", "> 10 µM"),
    ("CC1CCc2cc(F)cc3c(=O)c(C(=O)O)cn1c23 (stereo not given)", "> 10 µM"),
    ("O=C1C(CC[S+]([O-])c2ccccc2)C(=O)N(c2ccccc2)N1c1ccccc1 (stereo not given)", "> 10 µM"),
    ("Cc1n[nH]c2ccc(-c3cncc(OC[C@@H](N)Cc4ccccc4)c3)cc12", "1.3 µM"),
]

* * *

# Test system: HepG2
# Assay Info: cell viability relative to DMSO; higher = less toxic
# Measurement Context: 72 h; 1000 nM
Observation Type: cell viability (%)

# Compound, Measured Target, Observation Type, Readout Units, Test Value
rows = [
    ("Cn1nnc(-c2ccc(-c3ccc(N4C[C@H](CO)OC4=O)cc3F)cn2)n1", "HepG2", "cell viability", "%", 76.9),
    ("CC(=O)Nc1cccc2c1c(Sc1ccc(Cl)cc1)c(C)n2CC(=O)O", "HepG2", "cell viability", "%", 99.8),
    ("Nc1ccc(O)c(C(=O)O)c1", "HepG2", "cell viability", "%", 104),
    ("Cc1nnc2ccc(-c3cccc(C(F)(F)F)c3)nn12", "HepG2", "cell viability", "%", 90.4),
    ("COc1cc2ncnc(Nc3ccc(O)c(Br)c3)c2cc1OC", "HepG2", "cell viability", "%", 89.7),
    ("Cc1n[nH]c2ccc(-c3cncc(OC[C@@H](N)Cc4ccccc4)c3)cc12", "HepG2", "cell viability", "%", 53),
    ("NCC1OC(C23CC4CC(CC(C4)C2)C3)Cc2c1ccc(O)c2O (stereo unspecified)", "HepG2", "cell viability", "%", 101),
    ("COc1cc(/C=C/c2ccc(OC)cc2OC)cc(OC)c1", "HepG2", "cell viability", "%", 91.5),
    ("Cc1c(C(=O)Nc2ccc(N3C[C@@H](C)O[C@@H](C)C3)nc2)cccc1-c1ccc(OC(F)(F)F)cc1", "HepG2", "cell viability", "%", 98.9),
    ("CCCCCCCCCCCCCCCCNc1ccc(C(=O)O)cc1", "HepG2", "cell viability", "%", 105),
    ("CC1(C)[C@H]2CC[C@]1(C)[C@@H](O)[C@H]2O [cis-exo-camphanediol-2,3]", "HepG2", "cell viability", "%", 98.1),
    ("CCOC(=O)Nc1ccc2c(c1)N(C(=O)CCN(CC)CC)c1ccccc1S2", "HepG2", "cell viability", "%", 92.7),
    ("CO[C@H]1/C=C/O[C@@]2(C)Oc3c(C)c(O)c4c(O)c(c5c(nc6cc(C)ccn65)c4c3C2=O)NC(=O)/C(C)=C\\C=C\\[C@H](C)[C@H](O)[C@@H](C)[C@@H](O)[C@@H](C)[C@H](OC(C)=O)[C@@H]1C", "HepG2", "cell viability", "%", 104),
    ("C[C@@H]1CC[C@H]2C(C)(C)[C@H]3C[C@@]12CC[C@@]3(C)O", "HepG2", "cell viability", "%", 104),
    ("O=C1Nc2ccccc2C12OCC1(CO2)COC2(OC1)C(=O)Nc1ccccc12 (stereo unspecified)", "HepG2", "cell viability", "%", 98.4),
    ("C[C@@H]1O[C@@H](O[C@@H]2[C@@H](O)[C@H](OCCc3ccc(O)c(O)c3)O[C@H](CO)[C@H]2OC(=O)/C=C/c2ccc(O)c(O)c2)[C@H](O)[C@H](O)[C@H]1O [verbascoside]", "HepG2", "cell viability", "%", 106),
    ("C[C@@H]1CC(=O)c2c(ccc3c2C(=O)c2cccc(O)c2C3=O)C1", "HepG2", "cell viability", "%", 96.5),
    ("CC(C)NC[C@@H](O)c1ccc(O)c(O)c1 (racemic)", "HepG2", "cell viability", "%", 100),
    ("CCCN(CCC)CCc1cccc2c1CC(=O)N2", "HepG2", "cell viability", "%", 103),
    ("CNC(C)(C)Cc1ccccc1", "HepG2", "cell viability", "%", 104),
    ("Cn1cccc1/C=C1\\C(=O)NC(=O)c2ccccc21", "HepG2", "cell viability", "%", 83),
    ("Oc1nc(O)c2nc(O)[nH]c2n1", "HepG2", "cell viability", "%", 92.5),
    ("CC(C)COC(=O)c1ccc(N)cc1", "HepG2", "cell viability", "%", 88),
    ("C[N+](C)(C)NCCC(=O)O", "HepG2", "cell viability", "%", 107),
    ("COCCOC(=O)C1=C(C)NC(C)=C(C(=O)OC/C=C/c2ccccc2)C1c1cccc([N+](=O)[O-])c1 (stereo unspecified)", "HepG2", "cell viability", "%", 104),
    ("CN(CCOc1ccc(CC2SC(=O)NC2=O)cc1)c1ccccn1 (stereo unspecified)", "HepG2", "cell viability", "%", 96.5),
    ("O=c1oc2c(O)c(O)cc3c(=O)oc4c(O)c(O)cc1c4c23", "HepG2", "cell viability", "%", 96.4),
    ("CC(C)C[C@H](NC(=O)CNC(=O)[C@H](Cc1ccc(O)cc1)NC(=O)[C@H](CO)NC(=O)[C@H](Cc1c[nH]c2ccccc12)NC(=O)[C@H](Cc1cnc[nH]1)NC(=O)[C@@H]1CCC(=O)N1)C(=O)N[C@@H](CCCNC(=N)N)C(=O)N1CCC[C@H]1C(=O)NCC(N)=O", "HepG2", "cell viability", "%", 101),
    ("CC1Sc2c(C(=O)O)c(=O)c3cc(F)c(N4CCNCC4)cc3n21 (stereo unspecified)", "HepG2", "cell viability", "%", 98.2),
    ("Clc1ccc(COC(Cn2ccnc2)c2ccc(Cl)cc2Cl)cc1 (stereo unspecified)", "HepG2", "cell viability", "%", 97.3),
    ("O=c1cccc2n1C[C@@H]1CNC[C@H]2C1", "HepG2", "cell viability", "%", 97),
    ("COC(=O)c1ccccc1NC(=O)c1ccc(F)cc1 [EXO-1]", "HepG2", "cell viability", "%", 94.7),
    ("O=C1c2ccccc2C(=O)c2ccccc21", "HepG2", "cell viability", "%", 94.2),
    ("O=S(=O)(NCCCCCCc1ccccc1)c1cccc2c(Cl)cccc12", "HepG2", "cell viability", "%", 108),
    ("COc1ccc(NS(=O)(=O)c2sc3ccc(Cl)cc3c2C)cc1N1CCNCC1", "HepG2", "cell viability", "%", 109),
    ("O=C(O)CCC(=O)C(=O)O", "HepG2", "cell viability", "%", 98.8),
]

All figures here come from the supplement of paper PMC13380429.
